# binarize logP: threshold 1 inclusive, high side Condition met, low side Condition not met

[[record]]
molecule = "C[C@H](N[C@H](CCc1ccccc1)C(=O)O)C(=O)N1CCC[C@H]1C(=O)O"
qualitative_label = "Condition not met"

[[record]]
molecule = "N#Cc1c[nH]c(=O)[nH]c1=O"
qualitative_label = "Condition not met"

[[record]]
molecule = "COCCO"
qualitative_label = "Condition not met"

[[record]]
molecule = "CC(=O)Nc1c(I)c(C(=O)N[C@H]2C(O)O[C@H](CO)[C@@H](O)[C@@H]2O)c(I)c(N(C)C(C)=O)c1I (stereo partly specified)"
qualitative_label = "Condition not met"

[[record]]
molecule = "FCCl"
qualitative_label = "Condition not met"

[[record]]
molecule = "CCOC(=O)C(O)c1ccccc1 (stereo unspecified)"
qualitative_label = "Condition met"

[[record]]
molecule = "CN(C)C"
qualitative_label = "Condition not met"

[[record]]
molecule = "CNc1c(NCCSCc2nc[nH]c2C)c(=O)c1=O"
qualitative_label = "Condition not met"

[[record]]
molecule = "NNS(=O)(=O)c1ccccc1"
qualitative_label = "Condition not met"

[[record]]
molecule = "O=C(O)Cc1c[nH]c2ccccc12"
qualitative_label = "Condition met"

[[record]]
molecule = "Fc1cccc(C2CNCCO2)c1 (stereo unspecified)"
qualitative_label = "Condition met"

[[record]]
molecule = "COC(=O)CCCCCC(=O)OC"
qualitative_label = "Condition met"

[[record]]
molecule = "Cn1cnc([N+](=O)[O-])c1Sc1ncnc2nc[nH]c12"
qualitative_label = "Condition not met"

[[record]]
molecule = "c1ccc(CNc2ccccc2)cc1"
qualitative_label = "Condition met"

[[record]]
molecule = "O=C(O)CCCC(=O)O"
qualitative_label = "Condition not met"

[[record]]
molecule = "CCC[C@@H]1C[C@@H](C(=O)N[C@@H]([C@H]2O[C@H](SC)[C@H](O)[C@@H](O)[C@H]2O)[C@@H](C)O)N(C)C1"
qualitative_label = "Condition not met"

[[record]]
molecule = "COc1cc(CCN)cc(OC)c1OC"
qualitative_label = "Condition not met"

[[record]]
molecule = "CNC(=O)Oc1cccc(C(C)C)c1"
qualitative_label = "Condition met"

[[record]]
molecule = "NC(=O)Cc1ccccn1"
qualitative_label = "Condition not met"

[[record]]
molecule = "CCCCOCC1CO1 (stereo unspecified)"
qualitative_label = "Condition not met"

[[record]]
molecule = "Oc1nc(Cl)c(Cl)cc1Cl"
qualitative_label = "Condition met"

[[record]]
molecule = "C=C(CC(Cl)(Cl)Cl)c1ccccc1"
qualitative_label = "Condition met"

[[record]]
molecule = "CNC(=O)c1[nH]nc(C)c1[N+](=O)[O-]"
qualitative_label = "Condition not met"

[[record]]
molecule = "O=[N+]([O-])c1ccc2[nH]nnc2c1"
qualitative_label = "Condition met"

[[record]]
molecule = "CNCCO"
qualitative_label = "Condition not met"

[[record]]
molecule = "C=C(C)C(=O)OCC(C)C"
qualitative_label = "Condition met"

[[record]]
molecule = "Cc1cc(C)cc(O)c1"
qualitative_label = "Condition met"

[[record]]
molecule = "O=[N+]([O-])C=Cc1ccc(Cl)cc1"
qualitative_label = "Condition met"

[[record]]
molecule = "CCSC(=O)N1CCCCCC1"
qualitative_label = "Condition met"

[[record]]
molecule = "O=c1nc[nH]c(=O)[nH]1"
qualitative_label = "Condition not met"

[[record]]
molecule = "O=C(O)c1ccccc1O"
qualitative_label = "Condition met"


---

Consider the following molecules and their measured logP readings.
Outcome measure: logP

[[record]]
molecule = "COc1ccc(S(I)=C(N(C)C)N(C)C)c([N+](=O)[O-])c1 (stereo not given)"
outcome_measure = "logP"
test_value = -0.22

[[record]]
molecule = "CC(Oc1ccc(Cl)cc1)C(=O)O (stereo not given)"
outcome_measure = "logP"
test_value = 2.31

[[record]]
molecule = "CC(=O)C(=Cc1cccc(Cl)c1)C(C)=O"
outcome_measure = "logP"
test_value = 2.26

[[record]]
molecule = "Oc1cccc(I)c1"
outcome_measure = "logP"
test_value = 2.93

[[record]]
molecule = "COc1ccc(C=O)cc1O"
outcome_measure = "logP"
test_value = 0.97

[[record]]
molecule = "Cc1cccc(OC(=O)c2ccc(N)cc2O)c1"
outcome_measure = "logP"
test_value = 3.64

[[record]]
molecule = "Cc1ccc(C)c(C)c1"
outcome_measure = "logP"
test_value = 3.63

[[record]]
molecule = "c1ccc(N2CCOCC2)cc1"
outcome_measure = "logP"
test_value = 1.36

[[record]]
molecule = "NC(=O)Cn1ccnc1[N+](=O)[O-]"
outcome_measure = "logP"
test_value = -1.22

[[record]]
molecule = "CS(=O)(=O)c1ccc2ncccc2c1"
outcome_measure = "logP"
test_value = 0.7

[[record]]
molecule = "CCN(CC)CCNC(=O)c1cc(S(=O)(=O)CC)c(N)cc1OC"
outcome_measure = "logP"
test_value = 1.7

[[record]]
molecule = "CCN(C)N=Nc1ccc(C(N)=O)cc1"
outcome_measure = "logP"
test_value = 1.69

[[record]]
molecule = "O=C(O)Cc1ccccc1O"
outcome_measure = "logP"
test_value = 0.85

[[record]]
molecule = "C=CCN(CC=C)CC=C"
outcome_measure = "logP"
test_value = 2.59

[[record]]
molecule = "Nc1ccc2c(n1)[nH]c1ccccc12"
outcome_measure = "logP"
test_value = 2.6


---

// class 0 strictly below 2 in logP; class 1 otherwise

[[record]]
chemical_structure = "Cc1cccc(CO)c1"
qualitative_label = "class 0"

[[record]]
chemical_structure = "Nc1cc([N+](=O)[O-])cc([N+](=O)[O-])c1"
qualitative_label = "class 0"

[[record]]
chemical_structure = "CCOC(=O)n1cc(F)c(=O)[nH]c1=O"
qualitative_label = "class 0"

[[record]]
chemical_structure = "O=C(O)Cc1ccccc1Nc1cc(Cl)ccc1Cl"
qualitative_label = "class 1"

[[record]]
chemical_structure = "NC(=O)c1cnccn1"
qualitative_label = "class 0"

[[record]]
chemical_structure = "C[C@@H]1C[C@@H]([C@H](O)CC2CC(=O)NC(=O)C2)C(=O)[C@@H](C)C1"
qualitative_label = "class 0"

[[record]]
chemical_structure = "c1ccc2occc2c1"
qualitative_label = "class 1"


---

Peptide text beside a SMILES is read from it.
Quick rule for you: logP at 2 or higher means Y, lower means N.

[[record]]
molecule = "CC(C)C(=O)CC(=O)C(C)C"
qualitative_label = "Y"

[[record]]
molecule = "CCC(C)N (centres undefined)"
qualitative_label = "N"

[[record]]
molecule = "CC(=O)NCC(=O)N[C@@H](CC(C)C)C(=O)NCC(N)=O (Ac-Gly-Leu-Gly-NH2)"
qualitative_label = "N"

[[record]]
molecule = "O=NN(CCCl)C(=O)NC1CCCCCCCCCCC1"
qualitative_label = "Y"

[[record]]
molecule = "O=[N+]([O-])c1cccc(-c2ccccc2)c1"
qualitative_label = "Y"

[[record]]
molecule = "Oc1cccc(-c2ccccc2)c1"
qualitative_label = "Y"

[[record]]
molecule = "COc1ccc(OC)c(N)c1"
qualitative_label = "N"

[[record]]
molecule = "CC(C)c1ccc(O)cc1"
qualitative_label = "Y"

[[record]]
molecule = "CC(=O)O[C@]1(C(C)=O)CC[C@H]2[C@@H]3C[C@H](C)C4=CC(=O)C=C[C@]4(C)[C@@]3(F)[C@@H](O)C[C@@]21C"
qualitative_label = "N"

[[record]]
molecule = "FC(F)(F)c1nc2ccccc2[nH]1"
qualitative_label = "Y"

[[record]]
molecule = "CCNC(=O)c1[nH]nc(C)c1[N+](=O)[O-]"
qualitative_label = "N"

[[record]]
molecule = "C=CC"
qualitative_label = "N"

[[record]]
molecule = "CCCCOc1cccc(C=C(C(=O)OCC)C(=O)OCC)c1"
qualitative_label = "Y"

[[record]]
molecule = "CCCCCCCCOC(=O)c1cc(O)c(O)c(O)c1"
qualitative_label = "Y"

[[record]]
molecule = "COCCOC"
qualitative_label = "N"

[[record]]
molecule = "CCNNC(=O)COc1ccccc1"
qualitative_label = "N"

[[record]]
molecule = "NS(=O)(=O)c1cccc([N+](=O)[O-])c1"
qualitative_label = "N"

[[record]]
molecule = "COc1cc2c(c(OC)c1OC)-c1ccc(=O)c(OC)cc1[C@@H](NC(=O)C(F)(F)F)CC2"
qualitative_label = "Y"

[[record]]
molecule = "CC(=O)c1ccccc1Cl"
qualitative_label = "Y"

[[record]]
molecule = "Sc1ccccc1"
qualitative_label = "Y"

[[record]]
molecule = "CCC(=O)C(CS(=O)(=O)c1ccccc1)c1ccc(OC)cc1 (centres undefined)"
qualitative_label = "Y"

[[record]]
molecule = "Cc1onc(-c2ccccc2)c1C(=O)NC1C(=O)N2C1SC(C)(C)C2C(=O)O (centres undefined)"
qualitative_label = "Y"

[[record]]
molecule = "COC(=O)c1ccco1"
qualitative_label = "N"

[[record]]
molecule = "CNC(=O)Oc1cc(C)cc(C)c1"
qualitative_label = "Y"

[[record]]
molecule = "CC(=O)NCCCOc1cccc(CN2CCCCC2)c1"
qualitative_label = "Y"

[[record]]
molecule = "CNC(=O)Oc1cc(C)cc(C(C)C)c1"
qualitative_label = "Y"

[[record]]
molecule = "Nc1ccc(C(=O)Oc2ccc(Cl)cc2)c(O)c1"
qualitative_label = "Y"

[[record]]
molecule = "COc1ccc(C=C(C(C)=O)C(C)=O)cc1"
qualitative_label = "N"

